# Test system: Bacillus subtilis
# method.notes: Antimicrobial activity against Bacillus subtilis by CLSI method
# Format: functional
# condition.description: Bacillus subtilis
outcome.measure: MIC50

molecule="CC(=O)OCC1=C(C(=O)[O-])N2C(=O)[C@@H](NC(=O)CCC3C(=O)N(c4ccccc4)C3c3ccccc3)[C@H]2SC1.[Na+] (mixture of isomers)" study_target="Bacillus subtilis" data_value="< 0.25 µg/mL"
molecule=CO/N=C(\C(=O)N[C@@H]1C(=O)N2C(C(=O)O)=C(CSc3nc(=O)c(=O)[nH]n3C)CS[C@H]12)c1csc(N)n1.[Na+] study_target="Bacillus subtilis" data_value="< 0.25 µg/mL"
molecule="COc1ccc(N2C(=O)C(CC(=O)N[C@@H]3C(=O)N4C(C(=O)[O-])=C(COC(C)=O)CS[C@H]34)C2c2ccc([N+](=O)[O-])cc2)cc1.[Na+] (mixture of isomers)" study_target="Bacillus subtilis" data_value="8 µg/mL"

Answer for every listed entry: what is its MIC50? The entries follow.
1. CC(=O)OCC1=C(C(=O)[O-])N2C(=O)[C@@H](NC(=O)CC3C(=O)N(c4ccccc4)C3c3ccccc3)[C@H]2SC1.[Na+] (mixture of isomers)
2. CC(=O)OCC1=C(C(=O)[O-])N2C(=O)[C@@H](NC(=O)CCCCCC3C(=O)N(c4ccccc4)C3c3ccccc3)[C@H]2SC1.[Na+] (mixture of isomers)

["< 0.25 µg/mL", "< 0.25 µg/mL"]

Entry under test: COc1ccc(N2C(=O)C(CCCCCCCC(=O)N[C@@H]3C(=O)N4C(C(=O)[O-])=C(COC(C)=O)CS[C@H]34)C2c2ccccc2)cc1.[Na+] (mixture of isomers) . Its MIC50 was < 0.12 µg/mL

----------
Would you kindly list MIC for each of these compounds?
# Tested on: Staphylococcus aureus
# method.notes: Antimicrobial activity against Staphylococcus aureus by CLSI method
# Format: functional
# condition.description: Staphylococcus aureus; read-out: MIC100
Give bare numbers, in µg/mL.

Take a look at these entries with their results.
compound="COc1ccc(N2C(=O)C(CC(=O)N[C@@H]3C(=O)N4C(C(=O)[O-])=C(COC(C)=O)CS[C@H]34)C2c2ccc([N+](=O)[O-])cc2)cc1.[Na+] (mixture of isomers)" outcome_measure=MIC data_value=32
compound="CC(=O)OCC1=C(C(=O)[O-])N2C(=O)[C@@H](NC(=O)CC3C(=O)N(c4ccccc4)C3c3ccccc3)[C@H]2SC1.[Na+] (mixture of isomers)" outcome_measure=MIC data_value=2.5

Then this compound:
Entry under test: CC(=O)OCC1=C(C(=O)[O-])N2C(=O)[C@@H](NC(=O)CCC3C(=O)N(c4ccccc4)C3c3ccccc3)[C@H]2SC1.[Na+] (mixture of isomers) . Its MIC was 2.5

----------
# Tested on: MRC5
# method.notes: Cytotoxicity against human MRC5 cells assessed as reduction in cell viability at 0.5 to 25 ug/ml after 24 hrs by MTT assay
# Type: cell-based
# condition.description: mrc5, 24 h
outcome.measure: Activity

Take a look at these entries with their results.
molecule="CC(=O)OCC1=C(C(=O)[O-])N2C(=O)[C@@H](NC(=O)CCCCCC3C(=O)N(c4ccccc4)C3c3ccccc3)[C@H]2SC1.[Na+] (mixture of isomers)" study_target=MRC5 data_value=Non-Toxic
molecule="COc1ccc(N2C(=O)C(CCCCCC(=O)N[C@@H]3C(=O)N4C(C(=O)[O-])=C(COC(C)=O)CS[C@H]34)C2c2ccccc2)cc1.[Na+] (mixture of isomers)" study_target=MRC5 data_value=Non-Toxic
molecule="CC(=O)OCC1=C(C(=O)[O-])N2C(=O)[C@@H](NC(=O)CCC3C(=O)N(c4ccc(C)c(C)c4)C3c3ccccc3)[C@H]2SC1.[Na+] (mixture of isomers)" study_target=MRC5 data_value=Non-Toxic
molecule="COc1ccc(N2C(=O)C(CC(=O)N[C@@H]3C(=O)N4C(C(=O)[O-])=C(COC(C)=O)CS[C@H]34)C2c2ccc([N+](=O)[O-])cc2)cc1.[Na+] (mixture of isomers)" study_target=MRC5 data_value=Non-Toxic

Answer for every listed entry: what is its Activity? The entries follow.
1. CC(=O)OCC1=C(C(=O)[O-])N2C(=O)[C@@H](NC(=O)CCC3C(=O)N(c4ccccc4)C3c3ccccc3)[C@H]2SC1.[Na+] (mixture of isomers)
2. COc1ccc(N2C(=O)C(CC(=O)N[C@@H]3C(=O)N4C(C(=O)[O-])=C(COC(C)=O)CS[C@H]34)C2c2ccc(Cl)cc2)cc1.[Na+] (mixture of isomers)
3. COc1ccc(N2C(=O)C(CC(=O)N[C@@H]3C(=O)N4C(C(=O)[O-])=C(COC(C)=O)CS[C@H]34)C2c2ccccc2)cc1.[Na+] (mixture of isomers)

1. Non-Toxic
2. Non-Toxic
3. Non-Toxic
